Recorded Specific Activity values for a group of molecules are listed next.
- TESTED SYSTEM: KEX2 endopeptidase (kex2[YEp24-pJ2B] membranes) (Saccharomyces cerevisiae, UniProt P13134)
- Construct: not only includes the KEX2 gene, but also the necessary transcriptional and translational regulatory signals for expression in yeast; expressed in transfected cells; host or cells: S. cerevisiae XBH16-15A (MATalpha kex2-1) carrying YEp24-pJ2B
- Sequence (P13134 114-814): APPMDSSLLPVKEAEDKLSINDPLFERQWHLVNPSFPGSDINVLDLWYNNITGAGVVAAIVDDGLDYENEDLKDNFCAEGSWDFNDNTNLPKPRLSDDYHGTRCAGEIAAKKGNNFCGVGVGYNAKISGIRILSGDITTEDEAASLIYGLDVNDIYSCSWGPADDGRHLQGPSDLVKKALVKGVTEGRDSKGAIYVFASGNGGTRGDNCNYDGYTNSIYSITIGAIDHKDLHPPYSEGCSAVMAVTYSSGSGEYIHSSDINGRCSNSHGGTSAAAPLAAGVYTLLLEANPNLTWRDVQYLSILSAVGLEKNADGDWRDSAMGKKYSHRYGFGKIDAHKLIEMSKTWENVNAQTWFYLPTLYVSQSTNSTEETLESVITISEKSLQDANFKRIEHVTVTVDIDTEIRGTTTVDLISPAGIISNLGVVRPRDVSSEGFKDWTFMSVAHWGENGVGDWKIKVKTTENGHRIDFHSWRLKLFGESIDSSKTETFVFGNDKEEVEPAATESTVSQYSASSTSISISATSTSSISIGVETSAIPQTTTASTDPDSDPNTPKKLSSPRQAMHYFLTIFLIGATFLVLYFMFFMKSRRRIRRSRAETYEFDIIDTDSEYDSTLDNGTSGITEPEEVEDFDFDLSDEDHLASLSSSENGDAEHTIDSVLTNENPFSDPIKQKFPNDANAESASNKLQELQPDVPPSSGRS
- TEST: Endopeptidase activity in membranes from kex2 cells carrying multicopy plasmid pJ2B (over-produced specific endopeptidase)
- Format: biochemical, S. cerevisiae
- EXPERIMENTAL CONDITIONS: strain kex2[YEp24-pJ2B]; substrate 0.1 mM; membranes
Peptide text beside a SMILES is read from it. * marks the point of attachment. AMC = Cc1cc(=O)oc2cc(N*)ccc12; Boc = CC(C)(C)OC(=O)*

Completed entries (count: 3):
* Cc1cc(=O)oc2cc(NC(=O)[C@@H](N)CCCNC(=N)N)ccc12 [Arg--MCA, Arg-MCA] | 14.0 pmoles AMC formed/μg protein 10
* Cc1cc(=O)oc2cc(NC(=O)[C@H](CCCNC(=N)N)NC(=O)[C@H](CO)NC(=O)[C@H](Cc3ccccc3)NC(=O)OC(C)(C)C)ccc12 [Boc--PheSerArg--MCA, Boc-PheSerArg-MCA] (Boc-Phe-Ser-Arg-{AMC}) | 31.0 pmoles AMC formed/μg protein 10
* Cc1cc(=O)oc2cc(NC(=O)[C@H](CCCNC(=N)N)NC(=O)[C@H](CCCNC(=N)N)NC(=O)[C@H](CCC(N)=O)NC(=O)OC(C)(C)C)ccc12 [Boc--GlnArgArg--MCA, Boc-GlnArgArg-7-amino-4-methyl-coumarin] (Boc-Gln-Arg-Arg-{AMC}) | 100.8 pmoles AMC formed/μg protein 10

Prompt line: I would be grateful if you could share the reported Specific Activity for Cc1cc(=O)oc2cc(NC(=O)[C@H](CCCNC(=N)N)NC(=O)c3ccccc3)ccc12 [Bz--Arg--MCA, Bz-Arg-MCA] .
Response line: 0.6 pmoles AMC formed/μg protein 10

Prompt line: // query: Cc1cc(=O)oc2cc(NC(=O)[C@@H](N)CC(C)C)ccc12 [Leu--MCA, Leu-MCA]
Response line: 69.8 pmoles AMC formed/μg protein 10

Prompt line: Do the same for CC[C@H](C)[C@H](NC(=O)OC(C)(C)C)C(=O)N[C@@H](CCC(=O)O)C(=O)NCC(=O)N[C@@H](CCCNC(=N)N)C(=O)Nc1ccc2c(C)cc(=O)oc2c1 [Boc--IleGluGlyArg--MCA, Boc-IleGluGlyArg-MCA] (Boc-IEGR-{AMC}) please
Response line: 5.8 pmoles AMC formed/μg protein 10

Prompt line: What do we get for Cc1cc(=O)oc2cc(NC(=O)[C@H](CCCCN)NC(=O)[C@H](CCCCN)NC(=O)[C@H](CCC(=O)O)NC(=O)OC(C)(C)C)ccc12 [Boc--GluLysLys--MCA, Boc-GluLysLys-MCA] (Boc-Glu-Lys-Lys-{AMC}) ?
Response line: 1.9 pmoles AMC formed/μg protein 10

---

- Tested on: background activity in membranes of kex2[YEp24] cells
- TEST: Endopeptidase activity in membranes from kex2 cells transformed with the vector YEp24 alone (background activity)
- Format: biochemical, S. cerevisiae
- EXPERIMENTAL CONDITIONS: strain kex2[YEp24]; substrate 0.1 mM; membranes
Peptide text beside a SMILES is read from it. * marks the point of attachment. AMC = Cc1cc(=O)oc2cc(N*)ccc12; Boc = CC(C)(C)OC(=O)*
Recorded Specific Activity, one value per entry.

Past entries and their recorded results:
* Cc1cc(=O)oc2cc(NC(=O)[C@H](CCCNC(=N)N)NC(=O)[C@H](CO)NC(=O)[C@H](Cc3ccccc3)NC(=O)OC(C)(C)C)ccc12 [Boc--PheSerArg--MCA, Boc-PheSerArg-MCA] (Boc-Phe-Ser-Arg-{AMC}) | 0.6 pmoles AMC formed/μg protein 10
* Cc1cc(=O)oc2cc(NC(=O)[C@H](CCCCN)NC(=O)[C@H](CCCCN)NC(=O)[C@H](CCC(=O)O)NC(=O)OC(C)(C)C)ccc12 [Boc--GluLysLys--MCA, Boc-GluLysLys-MCA] (Boc-Glu-Lys-Lys-{AMC}) | 0.3 pmoles AMC formed/μg protein 10
* Cc1cc(=O)oc2cc(NC(=O)[C@@H](N)CC(C)C)ccc12 [Leu--MCA, Leu-MCA] | 33.7 pmoles AMC formed/μg protein 10

Prompt line: Provide the documented Specific Activity with background activity in membranes of kex2[YEp24] cells as the system for Cc1cc(=O)oc2cc(NC(=O)[C@H](CCCNC(=N)N)NC(=O)c3ccccc3)ccc12 [Bz--Arg--MCA, Bz-Arg-MCA]
Response line: 0.1 pmoles AMC formed/μg protein 10

Prompt line: What about CC[C@H](C)[C@H](NC(=O)OC(C)(C)C)C(=O)N[C@@H](CCC(=O)O)C(=O)NCC(=O)N[C@@H](CCCNC(=N)N)C(=O)Nc1ccc2c(C)cc(=O)oc2c1 [Boc--IleGluGlyArg--MCA, Boc-IleGluGlyArg-MCA] (Boc-IEGR-{AMC}) ?
Response line: 0.3 pmoles AMC formed/μg protein 10

Prompt line: What do you get for Cc1cc(=O)oc2cc(NC(=O)[C@@H](N)CCCNC(=N)N)ccc12 [Arg--MCA, Arg-MCA] ?
Response line: 6.7 pmoles AMC formed/μg protein 10

Prompt line: Moving on to Cc1cc(=O)oc2cc(NC(=O)[C@H](CCCNC(=N)N)NC(=O)[C@H](CCCNC(=N)N)NC(=O)[C@H](CCC(N)=O)NC(=O)OC(C)(C)C)ccc12 [Boc--GlnArgArg--MCA, Boc-GlnArgArg-7-amino-4-methyl-coumarin] (Boc-Gln-Arg-Arg-{AMC})
Response line: 5.0 pmoles AMC formed/μg protein 10

---

- TESTED SYSTEM: KEX2 endopeptidase (kex2::pJ2B membranes) (Saccharomyces cerevisiae)
- Construct: not only includes the KEX2 gene, but also the necessary transcriptional and translational regulatory signals for expression in yeast; expressed in transfected cells; host or cells: S. cerevisiae XBH16-15A (MATalpha kex2-1) containing pJ2B in integrated form; crude membranes
- Sequence (P13134 114-814): as above
- TEST: Endopeptidase activity in membranes from kex2 cells containing pJ2B in integrated form
- Type: biochemical, S. cerevisiae
- EXPERIMENTAL CONDITIONS: kex2::pJ2B relative to kex2[YEp24] = [1.0]; substrate 0.1 mM
Peptide text beside a SMILES is read from it. * marks the point of attachment. AMC = Cc1cc(=O)oc2cc(N*)ccc12; Boc = CC(C)(C)OC(=O)*
ASSAY ENDPOINT: Relative Ratio

• Cc1cc(=O)oc2cc(NC(=O)[C@H](CCCNC(=N)N)NC(=O)[C@H](CCCNC(=N)N)NC(=O)[C@H](CCC(N)=O)NC(=O)OC(C)(C)C)ccc12 [Boc--GlnArgArg--MCA, Boc-GlnArgArg-7-amino-4-methyl-coumarin] (Boc-Gln-Arg-Arg-{AMC}) = 3.3
• Cc1cc(=O)oc2cc(NC(=O)[C@@H](N)CCCNC(=N)N)ccc12 = 1.2
• Cc1cc(=O)oc2cc(NC(=O)[C@H](CCCNC(=N)N)NC(=O)c3ccccc3)ccc12 = 1.0
• Cc1cc(=O)oc2cc(NC(=O)[C@H](CCCCN)NC(=O)[C@H](CCCCN)NC(=O)[C@H](CCC(=O)O)NC(=O)OC(C)(C)C)ccc12 [Boc--GluLysLys--MCA, Boc-GluLysLys-MCA] (Boc-Glu-Lys-Lys-{AMC}) = 1.7

Prompt line: Param item = Cc1cc(=O)oc2cc(NC(=O)[C@H](CCCNC(=N)N)NC(=O)[C@H](CO)NC(=O)[C@H](Cc3ccccc3)NC(=O)OC(C)(C)C)ccc12 [Boc--PheSerArg--MCA, Boc-PheSerArg-MCA] (Boc-Phe-Ser-Arg-{AMC}) ; retrieve measured Relative Ratio.
Response line: 6.3

Prompt line: Likewise for `Cc1cc(=O)oc2cc(NC(=O)[C@@H](N)CC(C)C)ccc12` ?
Response line: 1.1

Prompt line: Consider next the compound CC[C@H](C)[C@H](NC(=O)OC(C)(C)C)C(=O)N[C@@H](CCC(=O)O)C(=O)NCC(=O)N[C@@H](CCCNC(=N)N)C(=O)Nc1ccc2c(C)cc(=O)oc2c1 [Boc--IleGluGlyArg--MCA, Boc-IleGluGlyArg-MCA] (Boc-IEGR-{AMC}) in the same way.
Response line: 3.0

---

- TESTED SYSTEM: KEX2 endopeptidase (kex2[YEp24-pJ2B] membranes) (Saccharomyces cerevisiae, UniProt P13134)
- Construct: not only includes the KEX2 gene, but also the necessary transcriptional and translational regulatory signals for expression in yeast; expressed in transfected cells; host or cells: S. cerevisiae XBH16-15A (MATalpha kex2-1) carrying YEp24-pJ2B
- TEST: Endopeptidase activity in membranes from kex2 cells carrying multicopy plasmid pJ2B (over-produced specific endopeptidase)
- Assay type: biochemical, S. cerevisiae
- EXPERIMENTAL CONDITIONS: kex2 cells transformed with plasmid pJ2B; comparisons are to the background activity
- Description: Permeabilization of whole yeast cells with the non-ionic detergent Brij 58, preparation of crude membrane fractions, and measurement of protein concentration were conducted by the methods described previously (Julius et al., 1983, supra), incorporated herein by reference. […] To determine the number of moles of substrate hydrolyzed, the fluorescence yield of samples was compared to a standard curve prepared with known concentrations of authentic AMC dissolved in the same buffer. […]
ASSAY ENDPOINT: Susceptibility of the specific KEX2 endopeptidase to inhibition or inactivation

• Cc1ccc(S(=O)(=O)NC(Cc2ccccc2)C(=O)CCl)cc1 (stereo not drawn) = completely resistant
• O=S(=O)(F)Cc1ccccc1 [PMSF, phenylmethylsulfonyl fluoride] = completely resistant
• Cc1ccc(S(=O)(=O)NC(CCCCN)C(=O)CCl)cc1 (stereo not drawn) = completely resistant
